# System: 994946-033-R-J1-PDC complex spheroid viability
# run.description: Anticancer human tumor 994946-033-R-J1-PDC patient-derived melanoma cell line growth inhibition [POLQ]
# test.conditions: second compound 10 µM; first compound 0.0316 µM; hits give low values
# Method: Multicellular complex tumor spheroid response to Polymerase (POL) inhibitors (novobiocin, ART-558, RP6685) in combination with a variety of drugs and investigational agents in selected tumor cell lines The POL inhibitors (novobiocin, ART-558, and RP6685) were evaluated both individually and in combination with standard of care and investigational anticancer small molecules within a complex spheroid model of solid tumors. . […]
reported.metric: viability, T/C (%)
Note: unit % is implicit; provide only the numeric part.

The cases that follow already have their viability, T/C on record.
## Task Fill in the blank: the reported viability, T/C of C=CC(=O)N1CCN(c2nc(=O)n(-c3c(C)ccnc3C(C)C)c3nc(-c4c(O)cccc4F)c(F)cc23)C(C)C1 (stereo not drawn) + COC1C(OC(N)=O)C(O)C(Oc2ccc3c(O)c(NC(=O)c4ccc(O)c(CC=C(C)C)c4)c(=O)oc3c2C)OC1(C)C is ____.
## Result 98.1

## Task Any idea what its viability, T/C is? The compound is O=C(Nc1ccc(O)c(NS(=O)(=O)c2ccc(F)cc2)c1)c1ccc(-c2ccccc2)cc1 + Cc1cccc(N(C)C(=O)C2C(O)CCN2c2nc(C)cc(C(F)(F)F)c2C#N)c1
## Result 85.5

Shift focus to the following entry.
## Task Name the reported viability, T/C value associated with the compound O=c1[nH]cc(F)c(=O)[nH]1 + Cc1cccc(N(C)C(=O)C2C(O)CCN2c2nc(C)cc(C(F)(F)F)c2C#N)c1
## Result 97.1

* * *

Each entry below lists one item and its recorded viability, T/C value.
# Test system: 994946-033-R-J1-PDC complex spheroid viability
# run.description: Anticancer human tumor 994946-033-R-J1-PDC cell line growth inhibition [POLQ];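 further: spheroids exposed to drugs for 7 days; 100% = DMSO vehicle treated spheroids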
# test.conditions: second compound 10 µM; first compound 0.316 µM; hits give low values
Give just the number in %; leave the unit off.

Worked set:
## Task Can you look up the measured viability, T/C of CC(C)n1c(=O)n(C)c2cnc3cc(F)c(-c4ccc(OCCCN5CCCCC5)nc4)cc3c21 + Nc1ccc(C#CCN(C(=O)Cc2ncc(C(F)(F)F)cc2C(F)(F)F)c2ccc(F)cc2)nn1 for me?
## Result 74.4

## Task Report viability, T/C for C=CC(=O)N1CCN(c2nc(=O)n(-c3c(C)ccnc3C(C)C)c3nc(-c4c(O)cccc4F)c(F)cc23)C(C)C1 (stereo not given) + COC1C(OC(N)=O)C(O)C(Oc2ccc3c(O)c(NC(=O)c4ccc(O)c(CC=C(C)C)c4)c(=O)oc3c2C)OC1(C)C please.
## Result 99.9

## Task If you can, please state the reported viability, T/C value of CCCS(=O)(=O)Nc1ccc(F)c(C(=O)c2c[nH]c3ncc(-c4ccc(Cl)cc4)cc23)c1F + Cc1cccc(N(C)C(=O)C2C(O)CCN2c2nc(C)cc(C(F)(F)F)c2C#N)c1 .
## Result 112

## Task So what does the record say about viability, T/C for C#Cc1c(F)ccc2cc(O)cc(-c3ncc4c(N5CC6CCC(C5)N6)nc(OCC56CCCN5CC(F)C6)nc4c3F)c12 (stereo not given) + Nc1ccc(C#CCN(C(=O)Cc2ncc(C(F)(F)F)cc2C(F)(F)F)c2ccc(F)cc2)nn1 ?
## Result 76.2

Now, please, on to the next compound.
## Task GET /values?readout=viability, T/C&item= CCc1cc2c(N3CCc4c(cc(Cn5ccnc5)cc4-c4cn(C)nc4C(F)(F)F)C3=O)ccnc2c(OC)n1 + Cc1cccc(N(C)C(=O)C2C(O)CCN2c2nc(C)cc(C(F)(F)F)c2C#N)c1
## Result 73.6

FYI, the data here is from PubChem BioAssay AID1963827.
